experiment: small-molecule microarray binders of probe aLefty2, primary screen, biochemical, biotinylated probe, 635/667 nm fluorescence (AID 1094); conditions: higher = more signal;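 further: score merges spot fluorescence near 667 nm with spot signal-to-noise ratio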
The entries below are paired with their reported composite z-score.
Kindly provide the number alone.

{"columns": ["Compound", "composite z-score"],
 "data": [
  ["COc1cc(NN2C(C(O)c3ccc(I)cc3)C=CC3C(=O)N(c4ccccc4)C(=O)C32)cc(OC)c1OC (centres undefined)", 0.25],
  ["COCCOC(=O)N1C(=O)[C@@]2(c3cc(C#CCNC(N)=O)ccc31)[C@H](c1ccc(O)cc1)N1[C@H](c3ccccc3)[C@H](c3ccccc3)OC(=O)[C@H]1[C@@H]2C(N)=O", -0.294],
  ["[N-]=[N+]=Nc1ccccc1C[C@]1(C(=O)O)N=C(c2ccc(OCCCO)cc2)O[C@H]1c1ccccc1N=[N+]=[N-]", 0.376]
]}

Could you now consider this next compound?
(Q) Identify the reported composite z-score for the following entry. CC(C)C(=C=CC[C@@H](O)c1cccc(OCCO)c1)C[C@@H](O)c1ccccn1
(A) -0.283

* * *

tested on: PRMT1 (protein arginine N-methyltransferase 1); assay: PRMT1 binders on small-molecule microarrays, primary screen, biochemical, small-molecule microarray, 635 nm fluorescence (AID 1088); conditions: small-molecule microarray binding, higher = more signal;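 further: binding of Prmt1 protein to compounds spotted on small-molecule microarray slides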
composite z-score of 1 or higher: fulfilled. Under 1: not fulfilled.

Examples with answers:
{"columns": ["Molecule", "Class"],
 "data": [
  ["COc1ccc([Si](C)(C)[C@@H]2[C@@H](CCn3cc([C@H](O)c4ccccc4)nn3)O[C@]3(C(=O)N(Cc4cccc(N5C(=O)c6cccc7cccc5c67)c4)c4ccccc43)[C@H]2C)cc1", "not fulfilled"],
  ["Cc1ccc([C@H]2C(C(=O)O)=C[C@@H](C(C)(C)C)N2S(=O)(=O)c2ccc(C)cc2)cc1", "fulfilled"],
  ["CC(=O)NCCCC[C@@H]1NC(=O)[C@@H]2C[C@H](C(=O)NCCCCCCN)[C@H](c3cccc(OCCO)c3)N2C1=O", "not fulfilled"],
  ["COc1cc(NN2C(C(O)C3CCCCC3)C=CC3C(=O)N(c4ccccc4)C(=O)C32)cc(OC)c1OC (configuration not stated)", "not fulfilled"],
  ["CCCCNC(=O)c1ccc(C#C[Si](C(C)C)(C(C)C)C(C)C)c(OC(C)=O)c1", "not fulfilled"],
  ["COc1ccc([Si](C)(C)[C@H]2[C@H](CC(=O)N3CCC[C@H]3CO)O[C@@]3(C(=O)N(Cc4ccc(N5CCC5=O)cc4)c4ccccc43)[C@@H]2C)cc1", "fulfilled"]
]}

Kindly review the next molecule as well.
(Q) Is the recorded value of composite z-score equal to or greater than 1 for this molecule? O=C(NCC(O)CO)[C@@]1(CCS(=O)(=O)c2ccccc2)COC(c2ccc(OCCCO)cc2)=N1 (some centres not stated)
(A) not fulfilled

* * *

test: small-molecule binders of probe aLefty1, primary screen, biochemical, small-molecule microarray, 635/667 nm fluorescence (AID 1153); conditions: higher = more signal;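 further: score merges spot fluorescence with signal-to-noise ratio from the scanned slide images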
composite z-score of 0.2 or higher: satisfied. Under 0.2: not satisfied.

{"columns": ["Compound", "Class"],
 "data": [
  ["O=C1N(CCS(=O)(=O)c2ccccc2)Cc2ccccc2[C@@H]2OC(c3ccc(OCCCO)cc3)=N[C@]12CCS(=O)(=O)c1ccccc1", "satisfied"],
  ["CC1CC/C=C\\[C@H]2OC34C=CCN(CCN5CCOCC5)C(=O)[C@H]3N(C(C)CO)C(=O)[C@@H]4C2C(=O)O1 (stereo partly drawn)", "not satisfied"],
  ["C=CCOC(=O)[C@H]1[C@@H]2C(=O)O[C@@H](c3ccccc3)[C@@H](c3ccccc3)N2[C@@H](c2ccc(OCCOC(=O)[C@H]3C[C@H]4C(=O)N[C@@H](CCCCNC(C)=O)C(=O)N4[C@H]3c3cccc(OCCO)c3)cc2)[C@]12C(=O)Nc1ccc(I)cc12", "not satisfied"],
  ["C=CCC(OC(C)=O)[C@@H]1[C@@H](N(Cc2cccc3ccccc23)C(=O)Cc2ccc(F)cc2)c2cc(OCCCO)ccc2N1C(=O)c1ccc(-c2ccccc2)cc1 (stereo partly drawn)", "not satisfied"],
  ["COC(=O)[C@@]1(Cc2ccccc2CN=[N+]=[N-])N=C(c2ccc(OCCCO)cc2)O[C@H]1c1ccccc1CN=[N+]=[N-]", "not satisfied"]
]}

(Q) Is the recorded value of composite z-score equal to or greater than 0.2 for this compound? O=C1C2C=CC(C(O)c3cc(C(F)(F)F)cc(C(F)(F)F)c3)N(Nc3ccccc3F)C2C(=O)N1c1ccccc1 (stereo not drawn)
(A) satisfied

(Q) Is the recorded value of composite z-score equal to or greater than 0.2 for this compound? COCCOC(=O)N1C(=O)[C@@]2(c3ccccc31)[C@H](c1ccccc1OCCO)N1[C@H](c3ccccc3)[C@H](c3ccccc3)OC(=O)[C@H]1[C@@H]2C(=O)N1CCCCCCC1
(A) satisfied

(Q) Is the recorded value of composite z-score equal to or greater than 0.2 for this compound? O=C1C[C@@](C(=O)NCc2ccccc2)(c2ccc([N+](=O)[O-])cc2)[C@@H](c2ccc(CO)cc2I)N1CC12CC3CC(CC(C3)C1)C2
(A) not satisfied

(Q) Is the recorded value of composite z-score equal to or greater than 0.2 for this compound? [N-]=[N+]=NCc1ccccc1[C@@H]1OC(c2ccc(OCCCO)cc2)=N[C@]1(Cc1ccccc1N=[N+]=[N-])C(=O)NCCN1CCOCC1
(A) satisfied

(Q) Is the recorded value of composite z-score equal to or greater than 0.2 for this compound? C=C[C@@H](OC)[C@H](OC(=O)Nc1ccc(OC)cc1)c1ccc(OC)c(O)c1
(A) not satisfied

(Q) Is the recorded value of composite z-score equal to or greater than 0.2 for this compound? NC(=O)[C@@H]1[C@H]2C(=O)O[C@H](c3ccccc3)[C@H](c3ccccc3)N2[C@H](c2ccc(OCCO)cc2)[C@@]12C(=O)Nc1ccc(C#CCCO)cc12
(A) not satisfied

(Q) Is the recorded value of composite z-score equal to or greater than 0.2 for this compound? COc1cc(NN2C(C(O)c3cc(OC)c(OC)c(OC)c3)C=CC3C(=O)N(c4ccccc4)C(=O)C32)cc(OC)c1OC (stereo not drawn)
(A) satisfied

(Q) Is the recorded value of composite z-score equal to or greater than 0.2 for this compound? Cc1ccccc1C(O)C1C=CC2C(=O)NC(=O)C2N1Nc1ccc(Cl)cc1Cl (stereo not drawn)
(A) satisfied

(Q) Is the recorded value of composite z-score equal to or greater than 0.2 for this compound? COc1cc2c(cc1OC)CN(C(=O)[C@@H]1[C@H]3C(=O)O[C@H](c4ccccc4)[C@H](c4ccccc4)N3[C@H](c3ccc(O)cc3)[C@@]13C(=O)Nc1ccc(C#CCCO)cc13)CC2
(A) not satisfied

(Q) Is the recorded value of composite z-score equal to or greater than 0.2 for this compound? CC(C)[Si]1(C(C)C)OCc2cc(-c3ccc(-c4ccc(Cl)c(Cl)c4)o3)nc(CCc3ccccc3)c21
(A) not satisfied
